Origin of the recorded values: ChEMBL document CHEMBL1145331

test-system: Estrogen receptor (Homo sapiens)
Sequence (whole entry): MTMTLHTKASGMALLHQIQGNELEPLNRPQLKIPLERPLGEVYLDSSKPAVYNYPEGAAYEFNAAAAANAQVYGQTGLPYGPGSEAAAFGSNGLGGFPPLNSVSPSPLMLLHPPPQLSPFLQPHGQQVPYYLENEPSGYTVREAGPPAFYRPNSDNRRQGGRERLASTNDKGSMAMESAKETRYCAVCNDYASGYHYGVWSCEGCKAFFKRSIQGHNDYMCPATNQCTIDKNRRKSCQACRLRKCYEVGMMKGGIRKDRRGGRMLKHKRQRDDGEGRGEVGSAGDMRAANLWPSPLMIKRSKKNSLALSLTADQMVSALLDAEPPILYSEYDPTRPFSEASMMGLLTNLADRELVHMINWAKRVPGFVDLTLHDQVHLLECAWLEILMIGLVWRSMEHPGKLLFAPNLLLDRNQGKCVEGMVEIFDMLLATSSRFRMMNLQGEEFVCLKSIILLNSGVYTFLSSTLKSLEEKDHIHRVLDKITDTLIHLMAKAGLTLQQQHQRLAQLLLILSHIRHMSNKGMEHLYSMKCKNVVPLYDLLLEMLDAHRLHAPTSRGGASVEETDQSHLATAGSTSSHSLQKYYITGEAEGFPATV
test-summary: Displacement of [3H]estradiol from human ERalpha relative to estradiol
quantity-kind: relative binding affinity (RBA)
Reply: number alone, nothing else.

Use these answered entries as a reference point.
>>> df
                           smiles_structure                       test_system  observed
0  CNc1c(/C=N/O)ccc(-c2ccc(C)cc2)c1-c1ccc(C)cc1  Estrogen receptor (Homo sapiens)      0.95
1  CNc1c(/C=N/O)ccc(-c2ccccc2)c1-c1ccc(O)cc1  Estrogen receptor (Homo sapiens)      1.17
2  CNc1c(/C=N/O)ccc(-c2cccc(OC)c2)c1-c1cccc(OC)c1  Estrogen receptor (Homo sapiens)      0.65

Problem: Recall and state the measured relative binding affinity (RBA) for `CNc1c(/C=N/O)ccc(-c2ccc(OC)cc2)c1-c1ccc(OC)cc1` .
Solution: 2.33

Problem: Recall and state the measured relative binding affinity (RBA) for `CNc1c(/C=N/O)ccc(-c2ccc(O)cc2)c1-c1ccc(O)cc1` .
Solution: 1.96

Problem: Recall and state the measured relative binding affinity (RBA) for `CNc1c(/C=N/O)ccc(-c2cccc(O)c2)c1-c1cccc(O)c1` .
Solution: 0.14

Problem: Recall and state the measured relative binding affinity (RBA) for `CNc1c(/C=N/O)ccc(-c2ccc(O)cc2)c1-c1ccccc1` .
Solution: 5.38

Problem: Recall and state the measured relative binding affinity (RBA) for `CNc1c(/C=N/O)ccc(-c2cccc(C)c2)c1-c1cccc(C)c1` .
Solution: 3.91
